Target: PPARδ (Homo sapiens, UniProt Q03181)
Construct: It is a handle made for the test, not a second protein
Sequence (Q03181 211-441 limits assumed): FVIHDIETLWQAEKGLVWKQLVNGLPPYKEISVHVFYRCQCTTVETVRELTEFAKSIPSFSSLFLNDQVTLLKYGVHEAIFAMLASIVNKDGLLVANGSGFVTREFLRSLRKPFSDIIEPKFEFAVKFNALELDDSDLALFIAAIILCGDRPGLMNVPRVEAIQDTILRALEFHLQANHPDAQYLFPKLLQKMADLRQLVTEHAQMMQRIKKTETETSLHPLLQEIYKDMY
Experiment: Cross curve PPAR transactivation test (PPARδ)
Settings: HeLN cells stably transfected with ERE-βGlob-Luc-SV-Neo and Gal-hPPARδ; cross curves against reference agonist, Schild regression; read-out: PPAR delta Kd app
Entries annotated with measured pKd
API: returns pKd as number; meaning -log10 of concentration in mol/L.

[[record]]
molecule = "CCCCCCCN(C(=O)NCCc1ccccc1)c1cccc(Sc2cccc(CC(=O)O)c2)c1 [Example 25b]"
subject_of_test = "PPARδ (Homo sapiens, UniProt Q03181)"
value_measured = 7.22


Exercise: What pKd appears in the records for this molecule with PPARδ (Homo sapiens, UniProt Q03181)? O=C(O)Cc1cccc(Sc2ccc(N(CCc3ccccc3)C(=O)NC3CCCCC3)cc2)c1 [Example 18b]
Key: 7.82

From: patent US20060035969A1
